All figures here come from patent US11999728B2.

Test: Pharmacokinetic Determination (Mouse PK)
Assay type: in vivo, female CD-1 mice
Condition Info: female, CD-1, plasma, IV, 3.0 mg/kg
Assay Metric: AUC(0-t) (µM·h)
Answer in µM·h, number only, no unit symbol.

C[C@@H]1Cc2c([nH]c3ccccc23)[C@@H](c2cnc(NC3CN(CCCF)C3)cn2)N1C12CC(C1)C2	2.08
C[C@@H]1Cc2c([nH]c3ccccc23)[C@@H](c2ccc(NC3CN(CCCF)C3)cc2)N1C12CC(CO)(C1)C2 (single isomer, unassigned)	1.04

I have this molecule here, C[C@@H]1Cc2c([nH]c3ccccc23)[C@@H](c2ccc(O[C@H]3CCN(CCCF)C3)nc2)N1C12CC(C1)C2 (single isomer, unassigned) , and I need its recorded AUC(0-t).
1.03
